PROTOCOL_DETAILS: logP by HPLC on reversed-phase columns (C 18), EEC Directive 79/831 Annex V.A8
Format: physicochemical
DETAILS: reversed-phase HPLC column (C 18), pH 2.7, HPLC, reversed-phase C 18, acidic range pH 2.7; table of compounds; read-out: log P
RECORDED_METRIC: chromatographic logP
Format: numeric value only, no unit, no commentary.

The cases that follow already have their chromatographic logP on record.
CHEMICAL_STRING: CNC(=O)c1cc(Cl)cc(C)c1NC(=O)c1cnc(Cn2nnc(C(F)(F)F)n2)nc1-c1ccccc1Cl
chromatographic logP: 3.31
--
CHEMICAL_STRING: CNC(=O)c1cc(Br)cc(C)c1NC(=O)c1nc(Cn2nnc(C(F)(F)F)n2)oc1-c1ccccc1Cl
chromatographic logP: 3.72
--
CHEMICAL_STRING: Cc1cc(Cl)cc(C(=O)NC(C)C)c1NC(=O)c1cnc(Cn2nnc(C(F)(F)F)n2)nc1-c1ccccc1Cl
chromatographic logP: 3.91

Prompt: # chromatographic logP lookup, item Cc1cc(Cl)cc(C(=O)NC(C)(C)C)c1NC(=O)c1sc(Cn2nnc(C(F)(F)F)n2)nc1-c1ccccc1Cl
Completion: 4.59

Prompt: And then Cc1cc(Br)cc(C(=O)NC(C)C)c1NC(=O)c1nc(Cn2nnc(C(F)(F)F)n2)sc1-c1ccccc1Cl , what is it?
Completion: 4.48

Prompt: Next: Cc1cc(C#N)cc(C(=O)NC(C)(C)C)c1NC(=O)c1sc(Cn2nnc(C(F)(F)F)n2)nc1-c1ccccc1Cl
Completion: 4.07

Prompt: Moving on to Cc1cc(C#N)cc(C(=O)NC(C)C)c1NC(=O)c1cnc(Cn2nnc(C(F)(F)F)n2)nc1-c1ccccc1Cl
Completion: 3.5

---

PROTOCOL_DETAILS: logP by HPLC on reversed-phase columns (C 18), EEC Directive 79/831 Annex V.A8
Format: physicochemical
DETAILS: reversed-phase HPLC column (C 18), pH 2.7, HPLC, reversed-phase C 18, acidic range pH 2.7; table of compounds; read-out: log P
Use 1 (yes) when the recorded chromatographic logP is no lower than 4; use 0 (no) when it is lower.

Before answering, review these 8 worked examples.
CHEMICAL_STRING: CNC(=O)c1cc(C#N)cc(C)c1NC(=O)c1sc(Cn2nnc(C(F)(F)F)n2)nc1-c1ccccc1Cl
GROUP: 0 (no)

CHEMICAL_STRING: CNC(=O)c1cc(C#N)cc(C)c1NC(=O)c1cc(C(=O)Cn2nnc(C(F)(F)F)n2)cn1-c1ncccc1Cl
GROUP: 0 (no)

CHEMICAL_STRING: Cc1cc(Br)cc(C(=O)NC(C)(C)C)c1NC(=O)c1nc(Cn2nnc(C(F)(F)F)n2)sc1-c1ccccc1Cl
GROUP: 1 (yes)

CHEMICAL_STRING: CNC(=O)c1cc(Cl)cc(C)c1NC(=O)c1cn(Cc2ccc(C(F)(F)F)nc2)nc1-c1ccccc1Cl
GROUP: 0 (no)

CHEMICAL_STRING: CNC(=O)c1cc(Cl)cc(C)c1NC(=O)c1sc(Cn2nnc(C(F)(F)F)n2)nc1-c1ccccc1Cl
GROUP: 0 (no)

CHEMICAL_STRING: CNC(=O)c1cc(C#N)cc(C)c1NC(=O)c1cnc(Cn2nnc(C(F)(F)F)n2)nc1-c1ccccc1Cl
GROUP: 0 (no)

CHEMICAL_STRING: CNC(=O)c1cc(Cl)cc(C)c1NC(=O)c1nc(Cn2nnc(C(F)(F)F)n2)oc1-c1ccccc1Cl
GROUP: 0 (no)

CHEMICAL_STRING: CNC(=O)c1cc(C#N)cc(C)c1NC(=O)c1cn(Cc2ccc(C(F)(F)F)nc2)nc1-c1ccccc1Cl
GROUP: 0 (no)

Prompt: Exam item: decide whether the reported chromatographic logP for Cc1cc(C#N)cc(C(=O)NC(C)(C)C)c1NC(=O)c1cnc(Cn2nnc(C(F)(F)F)n2)nc1-c1ccccc1Cl is at least 4.
Completion: 0 (no)

Prompt: And Cc1cc(Cl)cc(C(=O)NC(C)(C)C)c1NC(=O)c1nc(Cn2nnc(C(F)(F)F)n2)oc1-c1ccccc1Cl ?
Completion: 1 (yes)

Prompt: Follow-up entry: Cc1cc(Cl)cc(C(N)=O)c1NC(=O)c1nc(Cn2nnc(C(F)(F)F)n2)oc1-c1ccccc1Cl
Completion: 0 (no)

Prompt: Another molecule to check: Cc1cc(Cl)cc(C(N)=O)c1NC(=O)c1sc(Cn2nnc(C(F)(F)F)n2)nc1-c1ccccc1Cl
Completion: 0 (no)

Prompt: Can you handle Cc1cc(Cl)cc(C(=O)NC(C)C)c1NC(=O)c1sc(Cn2nnc(C(F)(F)F)n2)nc1-c1ccccc1Cl next?
Completion: 1 (yes)

---

PROTOCOL_DETAILS: logP by HPLC on reversed-phase columns (C 18), EEC Directive 79/831 Annex V.A8
Format: physicochemical
DETAILS: reversed-phase HPLC column (C 18), pH 2.7, HPLC, reversed-phase C 18, acidic range pH 2.7; table of compounds; read-out: log P
Description: […]
Label scheme for chromatographic logP: lower than 4 is no, 4 and above is yes.

Solved entries (count: 5):
CHEMICAL_STRING: Cc1cc(Cl)cc(C(=O)NC(C)C)c1NC(=O)c1nc(Cn2nnc(C(F)(F)F)n2)sc1-c1ccccc1Cl
GROUP: yes
--
CHEMICAL_STRING: Cc1cc(Br)cc(C(=O)NC(C)C)c1NC(=O)c1nc(Cn2nnc(C(F)(F)F)n2)oc1-c1ccccc1Cl
GROUP: yes
--
CHEMICAL_STRING: Cc1cc(Br)cc(C(=O)NC(C)C)c1NC(=O)c1sc(Cn2nnc(C(F)(F)F)n2)nc1-c1ccccc1Cl
GROUP: yes
--
CHEMICAL_STRING: CNC(=O)c1cc(C#N)cc(C)c1NC(=O)c1nc(Cn2nnc(C(F)(F)F)n2)oc1-c1ccccc1Cl
GROUP: no
--
CHEMICAL_STRING: CNC(=O)c1cc(Cl)cc(C)c1NC(=O)c1cc(Cn2nnc(C(F)(F)F)n2)cn1-c1ccccc1Cl
GROUP: no

Prompt: Hi team, for Cc1cc(C#N)cc(C(=O)NC(C)C)c1NC(=O)c1sc(Cn2nnc(C(F)(F)F)n2)nc1-c1ccccc1Cl , is the recorded chromatographic logP at or above 4?
Completion: no

Prompt: Continue with Cc1cc(C#N)cc(C(=O)NC(C)(C)C)c1NC(=O)c1nc(Cn2nnc(C(F)(F)F)n2)sc1-c1ccccc1Cl
Completion: yes

---

PROTOCOL_DETAILS: logP by HPLC on reversed-phase columns (C 18), EEC Directive 79/831 Annex V.A8
Format: physicochemical
DETAILS: reversed-phase HPLC column (C 18), pH 2.7, HPLC, reversed-phase C 18, acidic range pH 2.7; Preparation Examples
RECORDED_METRIC: chromatographic logP
Output: the number by itself.

CHEMICAL_STRING: CNC(=O)c1cc(Cl)cc(C)c1NC(=O)c1cnc(Cn2nnc(C(F)(F)F)n2)nc1-c1ccccc1Cl
TEST_VALUE: 3.13
--
CHEMICAL_STRING: O=C(O)c1cnc(Cn2nnc(C(F)(F)F)n2)nc1-c1ccccc1Cl
TEST_VALUE: 2.5
--
CHEMICAL_STRING: CCOC(=O)c1cnc(CBr)nc1-c1ccccc1Cl
TEST_VALUE: 3.32
--
CHEMICAL_STRING: CCOC(=O)c1cnc(Cn2nnc(C(F)(F)F)n2)nc1-c1ccccc1Cl
TEST_VALUE: 3.56
--
CHEMICAL_STRING: COC(=O)c1sc(CBr)nc1-c1ccccc1Cl
TEST_VALUE: 4.12

Prompt: Data request, read-out chromatographic logP, for O=C(Cn1nnc(C(F)(F)F)n1)c1cc(C(=O)O)n(-c2ncccc2Cl)c1
Completion: 2.24

Prompt: Can you handle COC(=O)c1cc(C(=O)Cn2nnc(C(F)(F)F)n2)cn1-c1ncccc1Cl next?
Completion: 2.97

Prompt: And what about the molecule O=C(O)c1sc(Cn2nnc(C(F)(F)F)n2)nc1-c1ccccc1Cl ?
Completion: 2.63

Prompt: Query COC(=O)c1sc(Cn2nnc(C(F)(F)F)n2)nc1-c1ccccc1Cl next
Completion: 3.6

Prompt: Another molecule to look at: COC(=O)c1cc(C(=O)CBr)cn1-c1ncccc1Cl
Completion: 2.28

Prompt: Also COC(=O)c1cc(C(C)=O)cn1-c1ncccc1Cl ?
Completion: 1.74

Prompt: Now try Cc1cc(Cl)cc2c(=O)oc(-c3cnc(Cn4nnc(C(F)(F)F)n4)nc3-c3ccccc3Cl)nc12 .
Completion: 5.16

---

PROTOCOL_DETAILS: logP by HPLC on reversed-phase columns (C 18), EEC Directive 79/831 Annex V.A8
Assay type: physicochemical
DETAILS: reversed-phase HPLC column (C 18), pH 2.7, HPLC, reversed-phase C 18, acidic range pH 2.7; table of compounds; read-out: log P
RECORDED_METRIC: chromatographic logP
Just the number, please, no unit attached.

Field: example entries. Status: answers known.
CHEMICAL_STRING: CNC(=O)c1cc(Br)cc(C)c1NC(=O)c1nc(Cn2nnc(C(F)(F)F)n2)sc1-c1ccccc1Cl
chromatographic logP: 3.98
--
CHEMICAL_STRING: Cc1cc(Cl)cc(C(=O)NC(C)(C)C)c1NC(=O)c1nc(Cn2nnc(C(F)(F)F)n2)sc1-c1ccccc1Cl
chromatographic logP: 4.75
--
CHEMICAL_STRING: CNC(=O)c1cc(C#N)cc(C)c1NC(=O)c1nc(Cn2nnc(C(F)(F)F)n2)sc1-c1ccccc1Cl
chromatographic logP: 3.46

Prompt: Look up chromatographic logP for this molecule: CNC(=O)c1cc(C#N)cc(C)c1NC(=O)c1cc(Cn2nnc(C(F)(F)F)n2)cn1-c1ccccc1Cl
Completion: 3.31

Prompt: Thanks! And Cc1cc(Br)cc(C(=O)NC(C)(C)C)c1NC(=O)c1nc(Cn2nnc(C(F)(F)F)n2)oc1-c1ccccc1Cl ?
Completion: 4.52

Prompt: What do we get for Cc1cc(Cl)cc(C(=O)NC(C)(C)C)c1NC(=O)c1cnc(Cn2nnc(C(F)(F)F)n2)nc1-c1ccccc1Cl ?
Completion: 4.33

Prompt: Next molecule up: Cc1cc(Cl)cc(C(N)=O)c1NC(=O)c1cnc(Cn2nnc(C(F)(F)F)n2)nc1-c1ccccc1Cl
Completion: 3.01

Prompt: Entry to check: CNC(=O)c1cc(Br)cc(C)c1NC(=O)c1sc(Cn2nnc(C(F)(F)F)n2)nc1-c1ccccc1Cl
Completion: 3.73

Prompt: // next record Cc1cc(C#N)cc(C(=O)NC(C)C)c1NC(=O)c1nc(Cn2nnc(C(F)(F)F)n2)oc1-c1ccccc1Cl
Completion: 3.69

Prompt: Same lookup for CNC(=O)c1cc(Cl)cc(C)c1NC(=O)c1cc(Cn2nnc(C(F)(F)C(F)(F)F)n2)cn1-c1ccccc1Cl , please.
Completion: 4.09

Prompt: Please do the same for Cc1cc(Br)cc(C(N)=O)c1NC(=O)c1sc(Cn2nnc(C(F)(F)F)n2)nc1-c1ccccc1Cl as well.
Completion: 3.45

These measurements were taken from patent US8980886B2.
